Recorded pKa for the following compounds
- TEST METHOD NOTES: Dissociation constant, pKa of compound
- Format: physicochemical

| ENTRY SMILES | pKa |
| --- | --- |
| C[C@@]1(c2cc(NC(=O)c3ccc(C#N)cn3)ccc2F)Cn2ccnc2C(N)=N1 | 8.2 |
| C[C@@]1(c2cc(NC(=O)c3ccc(C#N)cn3)ccc2F)Cn2nncc2C(N)=N1 | 7.1 |
| C[C@@]1(c2cccc(NC(=O)c3ccc(C#N)cn3)c2)Cn2nccc2C(N)=N1 | 8.5 |
| C[C@@]1(c2cc(NC(=O)c3ccc(C#N)cn3)ccc2F)Cn2cncc2C(N)=N1 | 9 |
| C[C@@]1(c2cc(NC(=O)c3ccc(C#N)cn3)ccc2F)Cn2cnnc2C(N)=N1 | 6.4 |
| C[C@@]1(c2cc(NC(=O)c3ccc(C#N)cn3)ccc2F)Cn2nnnc2C(N)=N1 | 5.1 |
| C[C@@]1(c2cc(NC(=O)c3ccc(C#N)cn3)ccc2F)Cn2ncnc2C(N)=N1 | 6.5 |
| C[C@@]1(c2cc(NC(=O)c3ccc(C#N)cn3)ccc2F)Cn2cccc2C(N)=N1 | 10.3 |
